- Protocol: relative permittivity at various frequencies (dimensionless)
- Protocol conditions: 303.15 K; 101 kPa; Liquid; Frequency=1 MHz; Parallel plate capacitor
Assay endpoint: relative permittivity

{"Compound": "CCCCO [butan-1-ol]", "relative permittivity": 16.933}
{"Compound": "CCCCCCCO [heptan-1-ol]", "relative permittivity": 11.014}
{"Compound": "CCCO [propan-1-ol]", "relative permittivity": 19.784}

a: CCCCCO [pentan-1-ol]
b: CCCCCCN [1-hexanamine]
c: CO [methanol]
Query :: Please produce an ascending ranking of these compounds based on relative permittivity. Answer by naming the labels in the order asked.
Result :: b, a, c
